These data points were gathered from ChEMBL document CHEMBL4371087.

# system: UniProt Q13133
# Sequence (Q13133 whole entry): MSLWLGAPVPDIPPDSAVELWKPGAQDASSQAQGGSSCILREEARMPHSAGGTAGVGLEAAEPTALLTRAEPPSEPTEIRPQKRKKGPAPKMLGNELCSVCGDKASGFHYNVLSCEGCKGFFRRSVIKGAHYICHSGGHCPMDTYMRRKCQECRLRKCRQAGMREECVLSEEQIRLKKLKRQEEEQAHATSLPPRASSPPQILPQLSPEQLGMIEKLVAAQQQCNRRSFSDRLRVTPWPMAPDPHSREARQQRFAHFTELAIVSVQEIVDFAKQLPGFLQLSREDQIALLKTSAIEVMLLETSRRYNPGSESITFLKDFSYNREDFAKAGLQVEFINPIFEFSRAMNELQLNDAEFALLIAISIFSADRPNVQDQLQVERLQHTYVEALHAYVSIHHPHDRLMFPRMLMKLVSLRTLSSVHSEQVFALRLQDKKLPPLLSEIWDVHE
# procedure_text: Agonist activity at full length human LXRalpha expressed in HEK293 cells harboring LXRE-Luc promoter at 10 uM by luciferase reporter gene assay relative to T0901317
# Format: cell-based
The source made the active and inactive calls. The calls are words filed in the database; no cut-off is given here.
measured_property: Emax

Guide cases for Emax, answers given:
{"columns": ["structure_string", "result"],
 "data": [
  ["CC(=O)n1nc(Cc2ccccc2)nc1-c1ccccc1", "50%"],
  ["COc1cccc(-c2nc(-c3ccccc3)n(S(=O)(=O)c3ccc(C)cc3)n2)c1", "inactive"],
  ["CCCCn1nc(-c2ccc(Cl)cc2)nc1-c1ccccc1", "inactive"],
  ["COc1cccc(-c2nc(-c3ccccc3)n(Cc3ccccc3)n2)c1", "62%"],
  ["CCn1nc(-c2ccccc2)nc1-c1ccccc1", "inactive"]
]}

Briefly, Emax measured for Brc1ccccc1-c1n[nH]c(-c2ccccc2)n1 : 52%

Briefly, Emax measured for c1ccc(-c2n[nH]c(-c3cccnc3)n2)cc1 : inactive
